- run description: Pharmacokinetic and brain penetration study, intravenous and oral administration in rats
- Type: in vivo
- cond: plasma; rat, oral (PO), 1 mg/kg versus IV

# molecule, bioavailability (%)
records = [
    ("Clc1ccc(C23CNC(CO2)C3)cc1Cl (stereo not shown) [522A]", 30.8),
]

###

- run description: Lipophilicity by Chromatographic Hydrophobicity Index (CHI LogD)
- Format: physicochemical
- cond: pH 7.4, pH 7.4, HPLC-UV; read-out: Chi LogD
recorded endpoint: chromatographic logD

# molecule, readout value
records = [
    ("Clc1ccc([C@]23CN[C@H](CO2)C3)cc1Cl (single isomer, unassigned) [516A]", 0.75),
    ("Clc1ccc(C23CNC(CO2)C3)cc1Cl (stereo not shown) [522A]", 0.75),
    ("CNC(C)Cc1ccc2c(c1)OCO2 (stereo not shown) [MDMA, reference compound]", 0.29),
    ("Clc1ccc([C@@]23CN[C@@H](CO2)C3)cc1Cl (single isomer, unassigned) [518A]", 0.75),
]

###

- study target: CYP2C19 (Homo sapiens, UniProt P33261)
- Construct: host or cells: recombinant microsomes
- Sequence (P33261 whole entry): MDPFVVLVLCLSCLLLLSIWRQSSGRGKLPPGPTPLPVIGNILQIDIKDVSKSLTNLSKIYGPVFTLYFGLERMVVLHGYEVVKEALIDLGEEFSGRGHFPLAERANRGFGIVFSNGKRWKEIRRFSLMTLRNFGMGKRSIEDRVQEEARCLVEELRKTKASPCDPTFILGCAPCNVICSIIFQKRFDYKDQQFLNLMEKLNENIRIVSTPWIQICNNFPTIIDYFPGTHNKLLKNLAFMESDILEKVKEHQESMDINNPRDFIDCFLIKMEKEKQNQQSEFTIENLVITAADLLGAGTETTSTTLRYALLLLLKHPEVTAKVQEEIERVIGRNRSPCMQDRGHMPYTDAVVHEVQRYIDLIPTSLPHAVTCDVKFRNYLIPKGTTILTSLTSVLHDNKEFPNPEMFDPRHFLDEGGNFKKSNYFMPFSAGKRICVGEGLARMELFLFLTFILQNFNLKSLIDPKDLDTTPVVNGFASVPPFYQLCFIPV
- run description: CYP450 inhibition, fluorescent probe, recombinant microsomes: CYP2C19
- Assay type: in vitro ADME
- cond: human, recombinant microsomes expressing CYP2C19
- Experimental: Methods and Procedure: The study was performed in agreement with previously described procedures to assure data integrity and adherence to GLP standards. […] IC50 values determined from the effect of test compounds on the metabolism of these probe substrates were then used to determine inhibitory potency against CYP450 isoforms. The test system was based on a three-step procedure with a “mix and read” format, where PGP-432,TI reaction and reading were performed at 37° C. […]

# compound, IC50 at 10 min (µM)
measured = [
    ("CNC(C)Cc1ccc2c(c1)OCO2 (stereo not shown) [MDMA, reference compound]", 50),
]

###

- run description: Pharmacokinetic and brain penetration study, intravenous and oral administration in rats
- Assay type: in vivo
- cond: rat, plasma, iv, 0.5 mg/kg, two hours after IV administration, 0.5 mg/kg, read-out: total plasma concentration

# compound, concentration at 2 h / nM
rows = [
    ("Clc1ccc(C23CNC(CO2)C3)cc1Cl (stereo not shown) [522A]", 594),
]

###

- run description: Pharmacokinetic and brain penetration study, intravenous and oral administration in rats
- Type: in vivo
- cond: rat, plasma, iv, 0.5 mg/kg, 0.5 mg/kg (Table 9)
recorded endpoint: AUC(0-t) (ng·h/mL)

# molecule, recorded endpoint, readout value
data = [
    ("Clc1ccc(C23CNC(CO2)C3)cc1Cl (stereo not shown) [522A]", "AUC(0-t)", 772),
]

###

- study target: human 5-HT2A receptor (Homo sapiens, UniProt P28223)
- Construct: expressed in transfected cells; host or cells: CHO
- Sequence (P28223 whole entry): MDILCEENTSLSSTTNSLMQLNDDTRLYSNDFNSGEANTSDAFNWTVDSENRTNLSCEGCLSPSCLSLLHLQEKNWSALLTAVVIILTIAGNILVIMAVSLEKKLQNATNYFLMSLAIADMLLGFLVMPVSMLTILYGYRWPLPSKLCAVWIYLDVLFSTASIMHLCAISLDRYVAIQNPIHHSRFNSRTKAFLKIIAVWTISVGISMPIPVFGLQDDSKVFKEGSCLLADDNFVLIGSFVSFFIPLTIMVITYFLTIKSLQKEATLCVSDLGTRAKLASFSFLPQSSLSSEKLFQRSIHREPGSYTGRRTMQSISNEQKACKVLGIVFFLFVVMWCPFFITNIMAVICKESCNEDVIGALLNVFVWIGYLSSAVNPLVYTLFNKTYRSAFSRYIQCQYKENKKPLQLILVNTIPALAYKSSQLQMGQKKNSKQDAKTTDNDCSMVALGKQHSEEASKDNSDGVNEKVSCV
- run description: Intracellular calcium response (FLIPR) in CHO cells expressing human 5-HT2A receptor, agonist and antagonist modes
- Format: cell-based
- cond: 5-HT2A antagonist selectivity (represented as pEC50), antagonist mode, versus serotonin EC80
recorded endpoint: EC50

# compound, readout value
measured = [
    ("CNC(C)Cc1ccc2c(c1)OCO2 (stereo not shown) [MDMA, reference compound]", "> 50.1 µM"),
]

###

- run description: In vitro intrinsic clearance in human liver microsomes
- Assay type: in vitro ADME
- cond: pH 7.4, read-out: Intrinsic clearance (μL/min/mg protein) human
- Protocol: Methods and Procedure: The general procedure involves incubating test compounds with liver microsomes and subsequently detecting the compounds to determine intrinsic clearance. […] Values for CLint are expressed as μL/min/mg protein. […] As it relates to the automated incubation procedure for microsomes incubation, the following procedure was followed: • 1. […] Metabolic stability was calculated from the ratio of peak area of the remaining test or control item with internal standard versus time. • 9. […]
Form field: microsomal CLint at 0.5 µM (one value per entry).
recorded endpoint: microsomal CLint at 0.5 µM (µL/min/mg)

# compound, recorded endpoint, readout value
records = [
    ("Clc1ccc([C@@]23CN[C@@H](CO2)C3)cc1Cl (single isomer, unassigned) [518A]", "microsomal CLint at 0.5 µM", 40),
    ("Clc1ccc([C@]23CN[C@H](CO2)C3)cc1Cl (single isomer, unassigned) [516A]", "microsomal CLint at 0.5 µM", 31),
    ("CNC(C)Cc1ccc2c(c1)OCO2 (stereo not shown) [MDMA, reference compound]", "microsomal CLint at 0.5 µM", 30),
    ("Clc1ccc(C23CNC(CO2)C3)cc1Cl (stereo not shown) [522A]", "microsomal CLint at 0.5 µM", 10),
]

###

- run description: Pharmacokinetic and brain penetration study, intravenous and oral administration in rats
- Format: in vivo
- cond: rat, plasma, iv, 0.5 mg/kg, IV, 0.5 mg/kg (Table 8), read-out: Clast

# compound, concentration at 8 h
measured = [
    ("Clc1ccc(C23CNC(CO2)C3)cc1Cl (stereo not shown) [522A]", "9.32 ng/mL"),
]

###

- study target: human 5-HT2A receptor (Homo sapiens)
- Construct: expressed in transfected cells; host or cells: CHO
- run description: Intracellular calcium response (FLIPR) in CHO cells expressing human 5-HT2A receptor, agonist and antagonist modes
- Format: cell-based
- cond: 5-HT2A agonist selectivity (pEC50), agonist mode, CHO cells, calcium response

# compound, study target, EC50
measured = [
    ("CNC(C)Cc1ccc2c(c1)OCO2 (stereo not shown) [MDMA, reference compound]", "human 5-HT2A receptor (Homo sapiens)", "> 50.1 µM"),
]

###

- run description: Pharmacokinetic and brain penetration study, intravenous and oral administration in rats
- Format: in vivo
- cond: rat, brain, iv, 0.5 mg/kg, two hours after IV administration, 0.5 mg/kg, read-out: total concentration in the brain

# compound, concentration at 2 h, nM
rows = [
    ("Clc1ccc(C23CNC(CO2)C3)cc1Cl (stereo not shown) [522A]", 1930),
]

###

Measured chromatographic logD of individual entries
- run description: Lipophilicity by Chromatographic Hydrophobicity Index (CHI LogD)
- Assay type: physicochemical
- cond: pH 7.4, as stated in text under Table 10; read-out: calculated Log D values

# compound, chromatographic logD
data = [
    ("Clc1ccc([C@]23CN[C@H](CO2)C3)cc1Cl (single isomer, unassigned) [516A]", 1.15),
    ("CNC(C)Cc1ccc2c(c1)OCO2 (stereo not shown) [MDMA, reference compound]", 0.29),
    ("Clc1ccc([C@@]23CN[C@@H](CO2)C3)cc1Cl (single isomer, unassigned) [518A]", 1.15),
    ("Clc1ccc(C23CNC(CO2)C3)cc1Cl (stereo not shown) [522A]", 1.15),
]

###

- run description: Pharmacokinetic and brain penetration study, intravenous and oral administration in rats
- Assay type: in vivo
- cond: rat, plasma, po, 1 mg/kg, oral (PO)
recorded endpoint: Cmax (ng/mL)

# compound, recorded endpoint, uom, readout value
data = [
    ("Clc1ccc(C23CNC(CO2)C3)cc1Cl (stereo not shown) [522A]", "Cmax", "ng/mL", 102),
]

###

- run description: Pharmacokinetic and brain penetration study, intravenous and oral administration in rats
- Type: in vivo
- cond: rat, plasma, iv, 0.5 mg/kg, 0.5 mg/kg (Table 9)

# compound, AUC(0-inf) [ng·h/mL]
rows = [
    ("Clc1ccc(C23CNC(CO2)C3)cc1Cl (stereo not shown) [522A]", 799),
]

###

- study target: CYP3A4 (Homo sapiens)
- Construct: purchased Life Technologies P2377; host or cells: Baculosomes
- Sequence (P08684 whole entry): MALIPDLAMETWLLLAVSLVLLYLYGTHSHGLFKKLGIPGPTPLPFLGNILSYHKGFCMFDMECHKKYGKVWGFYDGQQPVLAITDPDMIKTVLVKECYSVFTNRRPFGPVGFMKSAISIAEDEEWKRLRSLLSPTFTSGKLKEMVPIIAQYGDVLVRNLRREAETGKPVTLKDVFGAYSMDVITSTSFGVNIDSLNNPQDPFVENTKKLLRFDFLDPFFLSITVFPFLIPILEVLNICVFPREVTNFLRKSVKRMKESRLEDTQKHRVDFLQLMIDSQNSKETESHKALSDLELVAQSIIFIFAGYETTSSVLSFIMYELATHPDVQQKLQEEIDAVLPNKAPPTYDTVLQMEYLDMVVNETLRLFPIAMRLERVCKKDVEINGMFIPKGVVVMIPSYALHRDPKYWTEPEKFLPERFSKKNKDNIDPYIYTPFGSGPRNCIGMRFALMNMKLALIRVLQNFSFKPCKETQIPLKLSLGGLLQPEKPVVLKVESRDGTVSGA
- run description: CYP450 inhibition, fluorescent probes 7BQ and DBOMF: CYP3A4
- Assay type: in vitro ADME
- cond: human, recombinant microsomes expressing CYP3A4, probe 7BQ
recorded endpoint: IC50 at 10 min (µM)

# compound, study target, recorded endpoint, uom, readout value
measured = [
    ("CNC(C)Cc1ccc2c(c1)OCO2 (stereo not shown) [MDMA, reference compound]", "CYP3A4 (Homo sapiens)", "IC50 at 10 min", "µM", 50),
]

###

- study target: CYP2B6 (Homo sapiens)
- Sequence (P20813 1-491): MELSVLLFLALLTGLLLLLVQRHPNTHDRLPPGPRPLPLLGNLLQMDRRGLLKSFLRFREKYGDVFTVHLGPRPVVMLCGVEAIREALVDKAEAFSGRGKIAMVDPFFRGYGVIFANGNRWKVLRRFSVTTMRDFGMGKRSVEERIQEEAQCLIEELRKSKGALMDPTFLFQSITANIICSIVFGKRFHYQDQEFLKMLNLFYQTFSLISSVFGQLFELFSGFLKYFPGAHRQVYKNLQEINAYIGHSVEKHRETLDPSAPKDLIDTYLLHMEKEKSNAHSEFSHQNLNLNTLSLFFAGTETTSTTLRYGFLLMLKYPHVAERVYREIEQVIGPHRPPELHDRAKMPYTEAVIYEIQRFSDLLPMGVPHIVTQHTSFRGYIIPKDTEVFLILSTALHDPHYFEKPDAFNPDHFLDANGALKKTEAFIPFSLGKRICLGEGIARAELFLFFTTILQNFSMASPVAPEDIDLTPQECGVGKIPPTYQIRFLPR
- run description: CYP450 inhibition, Vivid CYP2B6 Baculosomes, BOMCC substrate
- cond: recombinant human CYP2B6

# compound, study target, IC50
rows = [
    ("Clc1ccc(C23CNC(CO2)C3)cc1Cl (stereo not shown) [522A]", "CYP2B6 (Homo sapiens)", "41 µM"),
]
